# Measurement target: Schistosoma mansoni thioredoxin glutathione reductase (TGR) (UniProt Q962Y6)
# Experimental protocol: qHTS Assay for the Inhibitors of Schistosoma Mansoni Peroxiredoxins; further: nearly all actives have a fitted effect of over 60% in size
# Stated conditions: purified TGR, DTNB reduction, TNB absorbance 405 nm; series mostly up to 114 µM
Among all 360,000 compounds or so, about 11,000 (3.1%) were called active. Not shown: some 4% with an inconclusive outcome. The call rests on the fitted dose curve; in most records, active means well fitted inhibition curve with a large enough effect; inconclusive means small, poorly fitted or top-dose-only effect; inactive means no such curve, though single readings can be large or run the other way. Shown is part of a subset that was picked to be rich in actives.
Pick one and only one: True for active, False for inactive

Compound	Label
Cc1nn(C(C)C(=O)Nc2ccc(C(C)C)cc2)c(=O)c2c1sc1ccccc12 (configuration not stated)	False
CC1=C(C)C(=O)OC(C(C)C2CCC3C4CC=C5CC(OC6OC(COC7OC(CO)C(O)C(O)C7O)C(O)C(O)C6O)CC(O)C5(C)C4CCC23C)C1 (configuration not stated)	False

Let's switch to this compound now.
[ask] Per the assay record, what outcome was assigned to CC1=C(C(N)=O)C(c2ccc3c(c2)OCO3)n2nc(-c3cccc(C)c3)nc2N1 (configuration not stated) ?
[reply] True
